B1: CPEB3 Ribozyme (parent)
chain: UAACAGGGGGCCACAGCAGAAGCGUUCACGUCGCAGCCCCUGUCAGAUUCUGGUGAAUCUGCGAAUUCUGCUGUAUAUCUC

- Variants of: B1
- assay_remarks: self-cleavage, relative activity (ratio to wild type); higher = more cleavage; in vitro, sequencing
For each of the variants below, state its self-cleavage.
// response body must contain only the number

For this variant ( UAACAAGGGGCCACAGCAGAAGCGUUCACGUCGCAGCCCCUGUCAGAUUCUGGUGAAUCUGCGAAUUCUGCGGUAUAUCUC [G6A U72G] ), measured self-cleavage is 0.27

For this variant ( UAACAGGGGGCCACAGCAGAAGCGUUCACGUCGCAGCCCUUGUCAGAUUCAGGUGAAUCUGCGAAUUCUGCUGUAUAUCUC [C40U U51A] ), measured self-cleavage is 0.84

For this variant ( UAACAGGGGGCCACAGCAGAAGCGUUCACAUCGCAGCCCCUGUCAGAUUCUGGUGAAUCUGCGAAUACUGCUGUAUAUCUC [G30A U67A] ), measured self-cleavage is 0.22

For this variant ( UAACAGGGAGCCACAGCAGAAGCGUUCACGUCGCAGCCCCUGUCAGAUUCUGAUGAAUCUGCGAAUUCUGCUGUAUAUCUC [G9A G53A] ), measured self-cleavage is 0.35

For this variant ( UAACAGGGGGCCGCAGCAGAAGCGUUCACGUCGCAGCCCCUGUCAGAUUCUGGUGAAUGUGCGAAUUCUGCUGUAUAUCUC [A13G C59G] ), measured self-cleavage is 0.24

For this variant ( UAACAGGGGGCCACAGCAGAAGCGUUCACGUCGCAGCCCCUGUCAGAUUCUGGUGAAACGGCGAAUUCUGCUGUAUAUCUC [U58A U60G] ), measured self-cleavage is 0.17

For this variant ( UAACAGGGGGCCACAGCAGAAGCGUUCACGUCGCAGCCCCUGGCAGAAUCUGGUGAAUCUGCGAAUUCUGCUGUAUAUCUC [U43G U48A] ), measured self-cleavage is 0.2

For this variant ( UAACAGGGGGCCACAGCAGAAGCGUUCACGUCGCAGCCCCUGUCAGAUUCUGGUCAAUCUGUGAAUUCUGCUGUAUAUCUC [G55C C62U] ), measured self-cleavage is 0.22

For this variant ( UAACAGGGGGCCACAGCAGAAGCGUUCACGUCGCUGCCCCUGUCAGAUUCUGGUGAAUCUGCGAAUUCUACUGUAUAUCUC [A35U G70A] ), measured self-cleavage is 0.2

For this variant ( UAACAGGGGGCCACAGCAGAAGCGUUCACGUCGCAGCCCCUGUCAGAUUCUGGUGAAUCUGCGAAUUCUGCUGUAAUUCUC [U76A A77U] ), measured self-cleavage is 1.01

For this variant ( UAACAGGGGGCCACCGCAGAAGCGUUCACGUCGCAGCCCCUGUCAGAUCCUGGUGAAUCUGCGAAUUCUGCUGUAUAUCUC [A15C U49C] ), measured self-cleavage is 0.35

For this variant ( UAACAGGGGGCCACAGCAGAGGCGUUCACGUCGCAGCCCCUGUCAGAUUCUGGUGAAUCUGCGUAUUCUGCUGUAUAUCUC [A21G A64U] ), measured self-cleavage is 0.26

For this variant ( UAACAGGGGGCCACAGCAGAAGCGUUCACGUCGCAGCCCCUGUCAGAUUCUGGUGAAUCUGCGAAUUCUGCUGAAUAUCAC [U74A U80A] ), measured self-cleavage is 1.26

For this variant ( UAACAGGGGGCCACAGCAGAAGCGUUCACGUCGCGGCCCCUGUCAGAUUCUGGUGGAUCUGCGAAUUCUGCUGUAUAUCUC [A35G A56G] ), measured self-cleavage is 1.27

For this variant ( UAACAGGGGGCCACAGCAGAAGCGUUCACGUCGCAGCCCCUGUCAGAUUCUGGUGAAUCUGCGUAUUCUGCUGUAUAUCAC [A64U U80A] ), measured self-cleavage is 0.37

For this variant ( UAACAGGGGGCCACAGCAGAAGCGUUCACGUCGCAGCCCCUGUCAGAUUCUGGUGAAUCUGCGAAUUCUGCUGUUUAUCGC [A75U U80G] ), measured self-cleavage is 1.26

For this variant ( UAACAAGGGGCCACAGCUGAAGCGUUCACGUCGCAGCCCCUGUCAGAUUCUGGUGAAUCUGCGAAUUCUGCUGUAUAUCUC [G6A A18U] ), measured self-cleavage is 0.23

For this variant ( UAACAGGGGGCCACAGCAGCAGCCUUCACGUCGCAGCCCCUGUCAGAUUCUGGUGAAUCUGCGAAUUCUGCUGUAUAUCUC [A20C G24C] ), measured self-cleavage is 0.1

For this variant ( UAACAGGGGGCCACAGCAGAUACGUUCACGUCGCAGCCCCUGUCAGAUUCUGGUGAAUCUGCGAAUUCUGCUGUAUAUCUC [A21U G22A] ), measured self-cleavage is 0.29

For this variant ( UAACAGGGGUCCACAGCAGAAGCGUUCACGUUGCAGCCCCUGUCAGAUUCUGGUGAAUCUGCGAAUUCUGCUGUAUAUCUC [G10U C32U] ), measured self-cleavage is 0.21

For this variant ( UAACAGGGGGCCACAGCAGAAGCGUUCACGUCGCAGCCCCUGUCAGAUUCUGGCGAAUCUGCGAAUUCUGCUCUAUAUCUC [U54C G73C] ), measured self-cleavage is 1.33

For this variant ( UAACAGGGGGCCACAGCAGAACCGUUCACGUCGCGGCCCCUGUCAGAUUCUGGUGAAUCUGCGAAUUCUGCUGUAUAUCUC [G22C A35G] ), measured self-cleavage is 0.32

For this variant ( UAACAGGGGGCCACAGCAGAAGCGUUCACGUCGCUGCCCCUGUCAGAUUCUGGUGAAUCUGCGAAUUCUGCUGUCUAUCUC [A35U A75C] ), measured self-cleavage is 0.71

For this variant ( UAACAGGGGGCCACAGCAGAAGCGUUCACGUCGCAGCCCCUGCCAGAUUCUGGUGAAUCUGUGAAUUCUGCUGUAUAUCUC [U43C C62U] ), measured self-cleavage is 0.3

For this variant ( UAACAGGGGGCCACAGCAGAAGCGUUCACGUCGCAGCCCCUAUCAGAUUCUGCUGAAUCUGCGAAUUCUGCUGUAUAUCUC [G42A G53C] ), measured self-cleavage is 0.29

For this variant ( UAACAGGGGGCCACAGCAGGAGCGUUCACGUCGCAGCCCCUGUCAGAUUCUGGUGAAUCUGCGAAAUCUGCUGUAUAUCUC [A20G U66A] ), measured self-cleavage is 0.33

For this variant ( UAACAGGGGGCCACAGCAGAAGCCUUCACGUCGCAGCCCCUGUCAGAUUCUGGUGAAUCUGCGAAUUCUGCUGUAUGUCUC [G24C A77G] ), measured self-cleavage is 0.3

For this variant ( UAACAGGGGGCCACAGCAGAAGCGUUCAUGUCGCAGCCCCUAUCAGAUUCUGGUGAAUCUGCGAAUUCUGCUGUAUAUCUC [C29U G42A] ), measured self-cleavage is 0.21

For this variant ( UAACAUGGGGCCACAGCAGAAGCGUUCACGUCGCAGCCCCUGUCAGAUUCUGGUGAAUCUGCGAAAUCUGCUGUAUAUCUC [G6U U66A] ), measured self-cleavage is 0.13

For this variant ( UAACAGGGGGCCACAGCAGAAGCGUUCACGUCGCAGCCCCGGUCAGAUUCUGGUGAAUCAGCGAAUUCUGCUGUAUAUCUC [U41G U60A] ), measured self-cleavage is 0.16

For this variant ( CAGCAGGGGGCCACAGCAGAAGCGUUCACGUCGCAGCCCCUGUCAGAUUCUGGUGAAUCUGCGAAUUCUGCUGUAUAUCUC [U1C A3G] ), measured self-cleavage is 0.9

// provenance: the RNAGym collection of RNA variant scans (doi:10.1093/nar/gkz1192)
